Readings of growth for the listed molecules
- System: SNB-75 CNS
- protocol text: NCI-60 one-dose screen, 48 h (100 = growth as untreated, 0 = no growth, -100 = all killed)
- condition: 10 µM unless noted
About 83,000 compounds went through this panel and 20% of them were active in at least one assay; those are over-represented in the sample as a whole.
Numeric only. Scale: %

In: State, in one line, measured growth of c1cc2c(ccc3[nH]c(-c4ccc5[nH]ncc5c4)c4c(c32)CCCC4)n1
Out: 62.1

In: State, in one line, measured growth of O=C(c1ccncc1)N1N=C(c2ccc(Cl)cc2)C[C@H]1c1cn(-c2ccccc2)nc1-c1ccccc1
Out: 72.7

###

Readings of growth for the listed molecules
- Tested on: A549/ATCC NSCLC
- protocol text: NCI-60 one-dose screen, 48 h (100 = growth as untreated, 0 = no growth, -100 = all killed)
- condition: 10 µM unless noted
This is part of a sample that, as a whole, favours compounds with a hit. Of some 83,000 tested, about 20% had one in any assay.
Numeric only. Scale: %

Examples from the recorded data:
COc1cc(-c2csc(NC(=O)c3ccc(N4CCOCC4)c(C(F)(F)F)c3)n2)cc(OC)c1OC	31.9
CC(C)c1ccc(C(=O)Nc2sc3c(c2C(N)=O)CCC(=O)C3)cc1	16.8
COCCOc1cc2ncnc(N3CCN(c4ncc(S(=O)(=O)N5CCCCC5)cn4)CC3)c2cc1OCCOC	102

In: State, in one line, measured growth of CC(=O)O[C@H]1CC2CCC3C(CC[C@@]4(C)C3C[C@H]([N+]3(C)CCCCC3)[C@@H]4OC(C)=O)[C@@]2(C)C[C@@H]1N1CCCCC1 (some centres undefined)
Out: 101

###

- System: U251 CNS
- protocol text: NCI-60 one-dose screen, 48 h (100 = growth as untreated, 0 = no growth, -100 = all killed)
- condition: 10 µM unless noted
Compounds without any hit were thinned out: in the full panel of roughly 83,000, 20% have a hit.
Output Criterion met for records whose growth is lower than 20%, Criterion not met for records at or above 20%.

Look over these answered cases.
O=C(Nc1ccc(OS(=O)(=O)c2ccc(F)cc2)cc1)C1CCCCCC1	Criterion not met
Cc1cccc(CNc2c3ccccc3nc3ccccc23)c1	Criterion not met
CCc1ccccc1-n1c(-c2ccc(OC)cc2)cc(-c2ccc(OC)cc2)c(C#N)c1=O	Criterion not met
COc1ccc(NC(=O)c2sc3nc(C)c(C(=O)/C=C/c4ccccc4)cc3c2N)cc1	Criterion met

In: is_below(growth, 20%) for NC(=O)c1ccc(-c2c3ccccc3cc3c2ccc2ccccc23)cc1 ?
Out: Criterion not met

In: is_below(growth, 20%) for CC(=O)O[C@H]1CC2CCC3C(CC[C@@]4(C)C3C[C@H]([N+]3(C)CCCCC3)[C@@H]4OC(C)=O)[C@@]2(C)C[C@@H]1N1CCCCC1 (stereo not given in full) ?
Out: Criterion not met

In: is_below(growth, 20%) for O=S(=O)(Nc1ccc(F)cc1F)c1ccc(-c2cnc(C3CC3)o2)cc1 ?
Out: Criterion not met

In: is_below(growth, 20%) for COC(=O)c1cc(N=C2NC(=O)/C(=C/C=C/c3ccccc3)S2)ccc1O ?
Out: Criterion not met

In: is_below(growth, 20%) for Cc1cc(N2CCCCC2)cc(C)c1-c1csc(NC(=O)c2ccncc2)n1 ?
Out: Criterion not met

In: is_below(growth, 20%) for COc1cc(OC)c(NC(=O)c2cc3ccccc3cc2O)cc1Cl ?
Out: Criterion met

In: is_below(growth, 20%) for O=[N+]([O-])c1cccc(-c2nc3cc4nc5ccccc5[nH]c4cc3n2)c1 ?
Out: Criterion not met

In: is_below(growth, 20%) for CCCCCOC(=O)c1c(C)[nH]c(/C=C2\N=C(c3ccc[nH]3)C=C2OC)c1C ?
Out: Criterion met

In: is_below(growth, 20%) for Clc1cc(Cl)c(Cl)c(-c2nnc(SCc3ccncc3Br)o2)c1 ?
Out: Criterion not met

In: is_below(growth, 20%) for Nc1ncnc2c1c(-c1cccc(Cl)c1)nn2CC(=O)N1CCOCC1 ?
Out: Criterion not met

In: is_below(growth, 20%) for Cn1ccnc1C(=O)/C=C/c1ccc(C(=O)Nc2ccccc2O)cc1 ?
Out: Criterion met

In: is_below(growth, 20%) for COc1ccc2c(c1)c(-c1nc(-c3c[nH]c4ccncc34)cs1)cn2C ?
Out: Criterion met

In: is_below(growth, 20%) for N#Cc1nc(-c2ccc(Cl)cc2)oc1S(=O)(=O)N1CCN(c2ccc(F)cc2)CC1 ?
Out: Criterion not met

In: is_below(growth, 20%) for COC(=O)[C@@H](CCCCNC(=O)[C@]12CCC(C)(C)C[C@@H]1C1=CC[C@@H]3[C@@]4(C)C/C(=C/c5ccco5)C(=O)C(C)(C)[C@@H]4CC[C@@]3(C)[C@]1(C)CC2)NC(=O)[C@]12CCC(C)(C)C[C@@H]1C1=CC[C@@H]3[C@@]4(C)C/C(=C/c5ccco5)C(=O)C(C)(C)[C@@H]4CC[C@@]3(C)[C@]1(C)CC2 ?
Out: Criterion not met

###

- System: A498 renal
- protocol text: NCI-60 one-dose screen, 48 h (100 = growth as untreated, 0 = no growth, -100 = all killed)
- condition: 10 µM unless noted
The panel holds about 83,000 compounds, 20% with a hit somewhere; the sample as a whole holds those more often.
Output TRUE for records whose growth is lower than 50%, FALSE for records at or above 50%.

COC(=O)[C@@H](CCCCNC(=O)[C@]12CCC(C)(C)C[C@@H]1C1=CC[C@@H]3[C@@]4(C)C/C(=C/c5ccco5)C(=O)C(C)(C)[C@@H]4CC[C@@]3(C)[C@]1(C)CC2)NC(=O)[C@]12CCC(C)(C)C[C@@H]1C1=CC[C@@H]3[C@@]4(C)C/C(=C/c5ccco5)C(=O)C(C)(C)[C@@H]4CC[C@@]3(C)[C@]1(C)CC2	FALSE
O=C(Nc1ccccc1O)c1ccc(CNC(=O)c2sccc2Nc2ccnc(C(F)(F)F)c2)cc1	TRUE
CCSc1oc(-c2ccccc2)nc1[P+](c1ccccc1)(c1ccccc1)c1ccccc1	TRUE

In: is_below(growth, 50%) for COc1ccccc1N1CCCCC1 ?
Out: FALSE

In: is_below(growth, 50%) for O=C(NCc1ccc(Cl)cc1Cl)C1CCC(=O)N1c1cccs1 (centres undefined) ?
Out: FALSE

###

- Test system: K-562 leukemia
- protocol text: NCI-60 one-dose screen, 48 h
- condition: 10 µM unless noted
The panel holds about 83,000 compounds, 20% with a hit somewhere; the sample as a whole holds those more often. Calls of active or inactive are those of the source. Rule for the calls: active = growth percent below 10; inactive = the rest.
Write down the outcome that applies. Available outcomes: active, inactive

Look over these answered cases.
O=C(CN1CCCCC1)Nc1nc(-c2cc3ccccc3oc2=O)cs1	inactive
C=C(C)[C@@H]1CC[C@]2(CO)CC[C@]3(C)[C@H](CC[C@@H]4[C@@]5(C)CC[C@H](NCO)C(C)(C)[C@@H]5CC[C@]43C)[C@@H]12	active
COc1cc(/C=C/C(=O)c2ccc(F)cc2)ccc1OCCCCOc1ccc(/C=C/C(=O)c2c(C)nc3ccccc3c2C)cc1OC	inactive

In: Test call, this compound: O=C(NCc1ccc(Cl)cc1Cl)C1CCC(=O)N1c1cccs1 (centres undefined)
Out: inactive

###

- Test system: K-562 leukemia
- protocol text: NCI-60 one-dose screen, 48 h
- condition: 10 µM unless noted
The panel holds about 83,000 compounds, 20% with a hit somewhere; the sample as a whole holds those more often. The source made the active and inactive calls. How the source made its calls: active means growth percent below 10; inactive means the rest.
Write down the outcome that applies. Available outcomes: t = active, f = inactive

Look over these answered cases.
COc1ccc(Nc2ncc(Br)c(NCCCNC(=O)C3CCCC3)n2)cc1	f
COc1ccccc1NC(=O)N=Nc1c(O)[nH]c2ccccc12	f
Cc1ccc(C)n1-c1ccccc1-n1c(C)ccc1C	f

In: Test call, this compound: COC(=O)CC[C@@H]1O[C@@H](c2cccc(C(F)(F)F)c2)[C@@H](O)[C@H]1O
Out: f

In: Test call, this compound: Cc1c(-c2ccc(O)cc2)n(Cc2ccc(OCCN3CCCCCC3)cc2)c2ccc(O)cc12
Out: t

###

- Test system: NCI-H226 lung
- protocol text: NCI-60 one-dose screen, 48 h
- condition: 10 µM unless noted
About 83,000 compounds went through this panel and 20% of them were active in at least one assay; those are over-represented in the sample as a whole. Active and inactive are the calls of the source. Rule for the calls: active = growth percent below 10; inactive = the rest.
Write down the outcome that applies. Available outcomes: YES (active), NO (inactive)

CSc1nc2ncc([N+](=O)[O-])c(=O)n2[nH]1	NO

In: Test call, this molecule: O=C(Nc1cccc2ccccc12)NC1CC1
Out: NO

In: Test call, this molecule: Nc1nc2ccccc2c2c(=O)c3cccc(Cl)c3sc12
Out: NO

In: Test call, this molecule: COc1ccc(NC(=O)c2sc3nc(C)c(C(=O)/C=C/c4ccccc4)cc3c2N)cc1
Out: NO

In: Test call, this molecule: C[PH+](c1nc2ccccc2nc1[PH+](C)C(C)(C)C)C(C)(C)C.C[PH+](c1nc2ccccc2nc1[PH+](C)C(C)(C)C)C(C)(C)C.[Au+].[Cl-] (stereo not given)
Out: YES

In: Test call, this molecule: COC(=O)c1c(C)c2n(c1C)C(=O)C(c1ccccc1)=C2
Out: NO

In: Test call, this molecule: COc1cc2c(c(OC)c1OC)CCC(c1cccc(NC(=O)c3ccc(Br)cc3)c1)O2 (stereo not given)
Out: NO

In: Test call, this molecule: CS(=O)(=O)c1ccc(-c2cnn3ccc(-c4cccc(S(=O)(=O)C5CC5)c4)nc23)cc1
Out: NO

In: Test call, this molecule: CCCCCCCCCCCCCCCCOCCCOP(=O)(O)C1CCCN(O)C1=O (stereo not given)
Out: YES

In: Test call, this molecule: CC1CCN(CCOc2ccc(CNc3ccc4nc(CCC5CCCCC5)[nH]c4c3)cc2)CC1
Out: NO
